test: Inhibition of melatonin receptor
assayReadout: IC50 (µM)

[
  {
    "molecule": "COc1ccc2c(c1)C(CC1CCOCC1)(c1ccc(Cl)cc1)n1ccnc1-2 (stereo unspecified)",
    "recordedMeasurement": 1.3
  }
]

---

experiment: Drug level in plasma of rat at 30 mg/kg, ip measured after 30 mins; type: ADME, organism-based; design: dose 30 mg/kg, route intraperitoneal
assayReadout: concentration at 0.5 h (µM)

[
  {
    "compound": "CCN(CC)C(=O)CCC1(c2ccc(Cl)cc2)c2c(OC)cccc2-c2nccn21 (stereo unspecified)",
    "unitSpec": "µM",
    "recordedMeasurement": 7.8
  }
]

---

target: Thromboxane A2 receptor (Homo sapiens)
Sequence (P21731 whole entry): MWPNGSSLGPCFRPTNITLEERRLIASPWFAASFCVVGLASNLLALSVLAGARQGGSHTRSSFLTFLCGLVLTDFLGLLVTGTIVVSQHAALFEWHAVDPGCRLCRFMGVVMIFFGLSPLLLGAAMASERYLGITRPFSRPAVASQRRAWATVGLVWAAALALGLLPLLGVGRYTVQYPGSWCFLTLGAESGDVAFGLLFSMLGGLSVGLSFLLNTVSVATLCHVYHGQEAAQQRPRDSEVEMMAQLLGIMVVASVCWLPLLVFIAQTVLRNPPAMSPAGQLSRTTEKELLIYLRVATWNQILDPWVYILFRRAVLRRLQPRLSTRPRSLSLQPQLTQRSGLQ
assayReadout: IC50

[
  {
    "molecule": "COc1ccc2c(c1)C(CC1CCOCC1)(c1ccc(Cl)cc1)n1ccnc1-2 (stereo unspecified)",
    "recordedMeasurement": "7 µM"
  }
]

---

experiment: Clearance in iv dosed rat; type: ADME, organism-based; conditions: in vivo
In this section we review reported clearance values for a set of molecules.
assayReadout: clearance (mL/min/kg)

[
  {
    "molecule": "O=C(CCC1(c2ccc(Cl)cc2)c2ccccc2-c2nccn21)N1C2CCCC1CC2 (mixture of isomers)",
    "unitSpec": "mL/min/kg",
    "recordedMeasurement": 34
  },
  {
    "molecule": "CC(C1CCN(C(=O)CCC2(c3ccc(Cl)cc3)c3ccccc3-c3nccn32)CC1)N1CCC(F)(F)C1 (mixture of isomers)",
    "unitSpec": "mL/min/kg",
    "recordedMeasurement": 38
  },
  {
    "molecule": "Brc1ccc(C2(CC3CCOCC3)c3ccccc3-c3nccn32)cc1 (racemic)",
    "unitSpec": "mL/min/kg",
    "recordedMeasurement": 48
  },
  {
    "molecule": "C[C@@H]1CC[C@H](C)N1C(=O)CCC1(c2ccc(Cl)cc2)c2ccccc2-c2nccn21 (mixture of isomers)",
    "unitSpec": "mL/min/kg",
    "recordedMeasurement": 36
  },
  {
    "molecule": "CCN(CC)C(=O)CCC1(c2ccc(Cl)cc2)c2ccccc2-c2nccn21 (racemic)",
    "unitSpec": "mL/min/kg",
    "recordedMeasurement": 38
  },
  {
    "molecule": "CCC1CCCCN1C(=O)CCC1(c2ccc(Cl)cc2)c2ccccc2-c2nccn21 (mixture of isomers)",
    "unitSpec": "mL/min/kg",
    "recordedMeasurement": 20
  },
  {
    "molecule": "CCN(C(=O)CCC1(c2ccc(Cl)cc2)c2ccccc2-c2nccn21)C(C)C (racemic)",
    "unitSpec": "mL/min/kg",
    "recordedMeasurement": 31
  },
  {
    "molecule": "CC(C)N(C(=O)CCC1(c2ccc(Cl)cc2)c2ccccc2-c2nccn21)C(C)C (racemic)",
    "unitSpec": "mL/min/kg",
    "recordedMeasurement": 26
  },
  {
    "molecule": "CC(C1CCN(C(=O)CCC2(c3ccc(Cl)cc3)c3ccccc3-c3nccn32)CC1)N1CCCC1 (mixture of isomers)",
    "unitSpec": "mL/min/kg",
    "recordedMeasurement": 38
  }
]

---

assay: Lipophilicity, log P of the compound; assay type: physicochemical; conditions: octanol/water
assayReadout: logP

[
  {
    "molecule": "Brc1ccc(C2(Cc3ccccc3)c3ccccc3-c3nccn32)cc1 (stereo in doubt; 2)",
    "recordedMeasurement": "> 3.8"
  }
]
